- Experiment summary: Pharmacokinetic analysis of T1-1 as a prodrug of MRS5474: plasma PK in mice after i.v. and p.o. dosing
- Assay type: in vivo, Male CD-1 mice
- Test conditions: male, mouse; PO(plasma), T1-1 dosed 13.55 mg/kg, CD-1 mice; analyte = label
Record form. Attribute: AUC(0-t). Fill in for each entry.
Field: numeric (ng·h/mL). Do not append units.

State the recorded AUC(0-t) for this entry: O=C(NCN(c1nc(Cl)nc2c1ncn2[C@H]1[C@H](O)[C@H](O)[C@@H]2C[C@@H]21)C(C1CC1)C1CC1)c1ccccc1 [Compound T1-1]
467

State the recorded AUC(0-t) for this entry: O[C@@H]1[C@H](O)[C@@H]2C[C@@H]2[C@H]1n1cnc2c(NC(C3CC3)C3CC3)nc(Cl)nc21 [MRS5474, reference compound]
6990
